# Tested on: Rhizobium 1 (Rhizobium herbae)
# test summary: relative growth (AUC of 72 h growth curve relative to DMSO control, dAUC) (ratio); higher = more growth (less inhibition), active = hit call of the paper
# experimental setup: 20 µM
Decide by relative growth: equal to or exceeding 1 means 1 (yes), less means 0 (no).

Prompt: Record CC1(C)C(C(=O)OC(C#N)c2cccc(Oc3ccccc3)c2)C1(C)C (centres undefined) ; criterion: relative growth no lower than 1. Met?
Response: 1 (yes)

Prompt: Is the recorded value of relative growth equal to or greater than 1 for this molecule? ClC1C(Cl)C(Cl)C(Cl)C(Cl)C1Cl (centres undefined)
Response: 0 (no)

Prompt: Evaluate OC(Cc1ccccc1Cl)(Cn1nc[nH]c1=S)C1(Cl)CC1 (centres undefined) : relative growth at minimum 1?
Response: 1 (yes)

Prompt: Record O=C(Nc1ccc(F)cc1F)c1cccnc1Oc1cccc(C(F)(F)F)c1 ; criterion: relative growth no lower than 1. Met?
Response: 0 (no)

Prompt: Quick check: does CC(C)(C)[C@@H](O)[C@H](Oc1ccc(Cl)cc1)n1cncn1 have relative growth greater than or equal to 1?
Response: 1 (yes)

Prompt: Is it the case that CS(=O)(=O)c1ccc(C(=O)C2C(=O)CCCC2=O)c([N+](=O)[O-])c1 has relative growth reaching or exceeding 1?
Response: 1 (yes)

Prompt: hey, is relative growth for this one >= 1? CC1(C(=O)Nc2ccc(O)c(Cl)c2Cl)CCCCC1
Response: 0 (no)

Prompt: Tell me whether relative growth is at least 1 here: C#CCOc1ccc(CCNC(=O)C(OCC#C)c2ccc(Cl)cc2)cc1OC (centres undefined)
Response: 1 (yes)

Prompt: Hello, I need to know if Cc1ccc(/N=C/N(C)/C=N/c2ccc(C)cc2C)c(C)c1 has measured relative growth not below 1. Thanks!
Response: 1 (yes)

Prompt: Decide: relative growth of CSc1nc(NC(C)C)nc(NC(C)C)n1 >= 1?
Response: 0 (no)

Prompt: Please indicate if the recorded relative growth for N#CC(CCc1ccc(Cl)cc1)(Cn1cncn1)c1ccccc1 (centres undefined) meets or exceeds 1.
Response: 0 (no)

Prompt: Check the entry CC(Oc1ccc(Oc2nc3ccc(Cl)cc3o2)cc1)C(=O)O (centres undefined) : does relative growth equal or exceed 1?
Response: 1 (yes)

Prompt: Is reported relative growth greater than or equal to 1 here: Nc1c(Cl)c(F)nc(OCC(=O)O)c1Cl
Response: 0 (no)

Prompt: Determine whether measured relative growth meets or exceeds 1 for CCCC(Cn1cncn1)c1ccc(Cl)cc1Cl (centres undefined)
Response: 1 (yes)

Prompt: Decide: is the reported value of relative growth for CN(C)C(CSS(=O)(=O)O)CSS(=O)(=O)O equal to or greater than 1?
Response: 0 (no)

Prompt: Evaluate CC(C)N1C(=O)N(c2ccccc2)CS/C1=N\C(C)(C)C : relative growth at minimum 1?
Response: 0 (no)

Prompt: Decide: is the reported value of relative growth for CC(Oc1ccc(Oc2ncc(C(F)(F)F)cc2Cl)cc1)C(=O)O (centres undefined) equal to or greater than 1?
Response: 1 (yes)

Prompt: Could you verify whether the entry CCCN(CCC)C(=O)SCc1ccccc1 shows relative growth of no less than 1?
Response: 1 (yes)

Prompt: Threshold query (relative growth >= 1) on CC1(C)C(C=C(Cl)Cl)C1C(=O)OC(C#N)c1cccc(Oc2ccccc2)c1 (centres undefined)
Response: 1 (yes)
